Tested on: KM-20L2
measurementNotes: NCI tumour cell line growth inhibition, 48 h
Active and inactive are the calls of the source. No stated cut-off is given here; in the data, active = GI50 up to about 1.1 µM and inactive = higher.
quantityKind: GI50

Give the observed GI50 of `CN(C)c1ccc2c(=O)c3ccccc3oc2n1` for KM-20L2.
> 100 µM (inactive)

Give GI50 only, for `CN(C)C(=O)OCOC(=O)N(C)C` , using KM-20L2 data.
> 100 µM (inactive)

Name the recorded GI50 of `COc1ccc([Se]c2ccc(OC)cc2OC)c(OC)c1` , assay system KM-20L2.
8.38 µM (inactive)

Provide measured GI50 on KM-20L2 for `COc1cc2c3cc1Oc1c(OC)c(OC)cc4c1[C@@H](Cc1ccc(O)c(c1)Oc1ccc(cc1)C[C@@H]3N(C)CC2)N(C)CC4.c1ccccc1` please.
5.32 µM (inactive)

Give the observed GI50 of `COc1ccc([Se]c2ccc(OC)cc2)cc1` for KM-20L2.
65.2 µM (inactive)

Hey, quick one: what's GI50 for each of these?
1. CC(=O)O[C@]12CCCCCC1C1(O)C(O)CCC[C@H]12 (some centres undefined)
2. O=C1CC(CC(=O)C2CCCCC2=O)C(=O)N1 (centres undefined)

1. > 100 µM (inactive)
2. > 100 µM (inactive)

Provide GI50 for all items below, preserving their order.
1. CC1(C)C=N[N+]2(C)C3C=CC(CC3)C12 (centres undefined)
2. CN1C(c2ccccc2)CC(=NOCc2ccccc2)CC1c1ccccc1 (centres undefined)
3. O=c1ccc2nc3cc(Br)ccc3sc-2c1
4. C/C(=C\Cc1cc(O)ccc1O)CCc1c(C)cc(O)c(C=O)c1C [PANICEIN B3]
5. CCOC(=O)/C(=C/c1cc(OC)ccc1OC)CC(=O)O
6. Nc1ccc2c(c1)CN1C(=O)c3ccccc3C1=N2 [DANIQUIDONE]

> 100 µM (inactive)
> 80.2 µM (inactive)
> 100 µM (inactive)
39.9 µM (inactive)
> 100 µM (inactive)
59 µM (inactive)

Provide measured GI50 on KM-20L2 for `CCc1cccc(C)c1NC(=O)CC(=O)NNC(N)=S` please.
> 100 µM (inactive)

* * *

System: OVCAR-3
measurementNotes: NCI tumour cell line growth inhibition, 48 h
Calls of active or inactive are those of the source. Cut-off read from the data, not from the text of the source: active = GI50 up to about 1.1 µM and inactive = higher.
Bench note: report the call from active, inactive

Hi team, can someone confirm the assay call for `CN(/N=C/c1ccc(Cl)c(Cl)c1)C1=NCCCCN1` ?
inactive

Continuing:
Would you mind telling me which call this test gave `CCC/N=C1\S/C(=C/c2ccc(OC)c(OC)c2)C(=O)N1c1ccccc1` ?
inactive

Hello, I am checking results. What call was entered for COC(=O)c1c2c(cc3c1CC1(Cc4cc5c(c(C=O)c4C1)CCCC5)C3)CCCC2 (centres undefined) ?
inactive

Call for entry CNc1ccc([S+]([O-])Nc2ccccc2)cc1 (centres undefined) :
inactive

Please let me know the test result on file for `c1ccc(/C(=N/Nc2nc3ccccc3s2)C2CCCCC2)nc1` .
inactive

So what was the verdict on `Clc1ccc(CNc2nc(Cl)c3nc[nH]c3n2)cc1Cl` in this test?
inactive

Which outcome was assigned to `CNCC(=O)Nc1ccc2c(c1)C(=O)c1ccc(NC(=O)CNC)cc1C2=O` in this test?
inactive

What classification did COP(C)(=O)C1=CCN(C(=O)OCC[Si](C)(C)C)CC1 (centres undefined) end up with in this test?
inactive

Could you kindly confirm the outcome this assay logged for `CC(=O)O[C@H]1C(=O)[C@@]2(C)[C@H]([C@H](OC(=O)c3ccccc3)[C@]3(O)C[C@H](OC(=O)[C@H](O)[C@@H](NC(=O)OC(C)(C)C)c4ccco4)C(C)=C1C3(C)C)[C@]1(OC(C)=O)CO[C@@H]1C[C@@H]2O` ?
active

* * *

Test system: NCI-H522
measurementNotes: NCI tumour cell line growth inhibition, 48 h
Active and inactive are the calls of the source. Cut-off read from the data, not from the text of the source: active = GI50 up to about 1.1 µM and inactive = higher.
quantityKind: GI50

Provide the reported GI50 of each entry below, same order.
1. CC(NNC(=O)c1cc[n+]([BH2-]C#N)cc1)c1ccccc1F (stereo not given)
2. CCCC[C@@H]1CCN2C[C@@H](O)[C@@H](O)[C@@H]2[C@H]1O
3. C=CC(C)CCC(C/C=C(\C)CCC=C(C)C)C(=C)CCCC(C)C (stereo not given)
4. Nc1ccc(S(=O)(=O)NCc2nccs2)cc1

["> 100 µM (inactive)", "> 100 µM (inactive)", "> 100 µM (inactive)", "16.6 µM (inactive)"]

Give measured GI50 for every item shown.
1. Cc1ccc(S(=O)(=O)N(/N=C/C=C/c2ccccc2)c2nnc(-c3ccccc3)c(-c3ccccc3)n2)cc1
2. CC/C=N\N1C(N)=C(C#N)C(C#N)(C#N)C1CC (stereo not given)
3. O=C(/C=C/c1ccccc1)c1cc(CN2CCOCC2)c(O)c(CN2CCOCC2)c1
4. CCCCCCCCCCCCCCCCCC(=O)Nc1ccn(C2OC(CO)C(O)C2O)c(=O)n1 (stereo not given)
5. O=C1c2ccccc2-c2[nH]c3cn[nH]c(=O)c3c21

1. 15.9 µM (inactive)
2. > 100 µM (inactive)
3. > 100 µM (inactive)
4. 5.04 µM (inactive)
5. 13.4 µM (inactive)

Could you please provide reported GI50 for `CN(Cc1cc(Br)cc(Br)c1O)Cc1c(O)ccc2ccccc12` ? Thanks!
26.7 µM (inactive)

* * *

Test system: OVCAR-4
measurementNotes: NCI tumour cell line growth inhibition, 48 h
The source made the active and inactive calls. No stated cut-off is given here; in the data, active = GI50 up to about 1.1 µM and inactive = higher.
Classes to choose from: Y for active, N for inactive

Look over these answered cases.
Which outcome was entered for the compound O=C1CC(CC(=O)C2CCCCC2=O)C(=O)N1 (centres undefined) in this test?
N

Per the records of this test, what outcome belongs to `CC1=CC(=O)c2[nH]c3ccccc3c2C1=O` ?
N

Recorded test outcome, item `C/C=C/C=C/c1nc(C#N)c(N)o1`
N

Hi, sorry to bother you, what did the test record for `Oc1cc(-c2ccccc2)cn2c1nc1ccccc12` ?
N

Recorded call for `CC(C)/C(Cl)=N\OC(=O)Nc1ccc(F)cc1F` ?
N

Continuing:
// return assay outcome for `O[C@@]12Cc3c([nH]c4ccccc34)[C@@H]3Oc4c(-c5ccccc5)ccc5c4[C@@]31CCN(CC1CC1)[C@@H]2C5`
N

Per the assay record, what outcome was assigned to CCOC(=O)C1CCCC1S(=O)(=O)c1ccc(C)cc1 (centres undefined) ?
N

Can you look up the reported call for `O=C1NC(=O)C(C(=O)C(=O)Nc2ccc(Cl)cc2Cl)C(=O)N1` for me?
N

* * *

What GI50 was measured for each of the following?
Tested on: SNB-75
measurementNotes: NCI tumour cell line growth inhibition, 48 h
Calls of active or inactive are those of the source. Cut-off read from the data, not from the text of the source: active = GI50 up to about 1.1 µM and inactive = higher.

Solved entries (count: 2):
Recall and state the measured GI50 for COc1cccc2c1C(=O)c1c(O)c3c(c(O)c1C2=O)CC(O)(C(C)=O)CC3OC1OC(COC(C)=O)C(OC(C)=O)C(OC(C)=O)C1OC(C)=O (centres undefined) .
9.29 µM (inactive)

Answer with reported GI50 of `CCc1cccc(C)c1NC(=O)CC(=O)NNC(N)=S`
> 100 µM (inactive)

For every item in the list below, what is its measured GI50?
1. C=C1N(C=O)C(C)(C)N(O)C1(C)C
2. O=C1CCC(c2ccccc2)C(O)(C(=O)O)C1 (centres undefined)
3. Cc1ccc(S(=O)(=O)n2c3c(c4ccccc42)CCN2C(=O)C(S(=O)(=O)c4ccccc4)=CCC32)cc1 (centres undefined)
4. CCN(CC)CCSc1c2ccccc2nc2cc(NCC(=O)Nc3ccccc3-c3ccccc3NC(=O)CNc3ccc4c(SCCN(CC)CC)c5ccccc5nc4c3)ccc12
5. Nc1nc(Cl)c(N)c(NCC2(CO)CC(OCc3ccccc3)C2)n1 (centres undefined)

1. > 100 µM (inactive)
2. > 100 µM (inactive)
3. 0.157 µM (active)
4. > 77.4 µM (inactive)
5. 70 µM (inactive)

List reported GI50 for each of these molecules:
1. COC(=O)C1=CSC2(S1)C(C(=O)OC)=CSc1c2ssc1=O (centres undefined)
2. CCOC(=O)N1C/C(=C\c2ccccc2)C(=O)/C(=C/c2ccccc2)C1

1. 3.22 µM (inactive)
2. 6.97 µM (inactive)

* * *

Tested on: ACHN
measurementNotes: NCI tumour cell line growth inhibition, 48 h
Active and inactive are the calls of the source. Cut-off read from the data, not from the text of the source: active = GI50 up to about 1.1 µM and inactive = higher.
Consider the following compounds; for each one, report its GI50.

Recorded results for 3 compounds are shown here.
For the compound `CCN(CC)CCSc1c2ccccc2nc2cc(NCC(=O)Nc3ccccc3-c3ccccc3NC(=O)CNc3ccc4c(SCCN(CC)CC)c5ccccc5nc4c3)ccc12` , give its reported GI50.
> 100 µM (inactive)

# return recorded GI50 for input O=C1CC(CC(=O)C2CCCCC2=O)C(=O)N1 (stereo unspecified)
> 100 µM (inactive)

Give recorded GI50. `CC1=C2C(=O)NN=C2CCN1c1ccc(Br)cc1`
> 100 µM (inactive)

Quick batch: GI50 for everything below.
1. O=C1CCC[C@]2(CCCC(=O)N2)C1
2. C=C1C[C@@H](O)[C@@H](Br)C(C)(C)[C@]12CCC(C)(Cl)C(Br)C2 (stereo partly specified)
3. O=c1c2ccccc2sc2nc(CCl)nn12

> 100 µM (inactive)
32.8 µM (inactive)
6.31 µM (inactive)

Hi, could you look up GI50 for each item in my list?
1. CCn1c2c(c3c(C(=O)OC)c(O)ccc31)C(=O)c1ccccc1C2=O
2. COC(=O)c1c(CC(Cc2ccc3c(c2)CCCC3)C(=O)OC)ccc2c1CCCC2 (stereo unspecified)
3. Cc1nn(C2OC(CO)C(O)C(F)C2O)c(=O)[nH]c1=O (stereo unspecified)
4. C=CC(C)CCC(C/C=C(\C)CCC=C(C)C)C(=C)CCCC(C)C (stereo unspecified)
5. O=c1[nH]c(=O)n(C2CC(O)C(O)C(CO)O2)cc1F (stereo unspecified)

["4.69 µM (inactive)", "45.1 µM (inactive)", "> 100 µM (inactive)", "> 100 µM (inactive)", "> 100 µM (inactive)"]
